The origin of these recorded values is patent US6207399A.

biological target: factor Xa (Homo sapiens, UniProt P00742); construct: human factor Xa samples; gift of Dr. T. Lindhout (University of Limburg, Maastricht); experiment: Kinetics of hydrolysis of substrates by human factor Xa in buffer A at 37° C. (Example 2, Table 2); format: biochemical
Sequence (P00742 41-179 limits assumed): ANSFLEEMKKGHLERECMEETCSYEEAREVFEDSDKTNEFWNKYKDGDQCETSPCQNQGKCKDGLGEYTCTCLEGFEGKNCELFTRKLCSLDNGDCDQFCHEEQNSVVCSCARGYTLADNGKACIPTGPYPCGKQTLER
Sequence (P00742 235-488 limits assumed): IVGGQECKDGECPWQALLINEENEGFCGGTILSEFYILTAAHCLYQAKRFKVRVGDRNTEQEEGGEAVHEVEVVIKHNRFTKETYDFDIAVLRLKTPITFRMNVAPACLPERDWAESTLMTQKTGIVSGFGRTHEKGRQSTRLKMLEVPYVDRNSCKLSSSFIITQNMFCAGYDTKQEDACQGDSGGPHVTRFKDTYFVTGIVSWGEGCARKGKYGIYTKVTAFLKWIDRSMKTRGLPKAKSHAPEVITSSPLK
Peptide text beside a SMILES is read from it. * marks the point of attachment. pNA = O=[N+]([O-])c1ccc(N*)cc1; Boc = CC(C)(C)OC(=O)*
Given measured Km, output t if it is greater than or equal to 3000 µM and f if not.

* CC(C)[C@H](NC(=O)CN)C(=O)N[C@@H](CCCNC(=N)N)C(=O)Nc1ccc([N+](=O)[O-])cc1.Cl.Cl [2HCl.H-Gly-Val-Arg-pNA] (H-Gly-Val-Arg-pNA) | f
* COC(=O)C(C)C(=O)NCC(=O)NC(CCCNC(=N)N)C(=O)Nc1ccc([N+](=O)[O-])cc1.Cl (mixture of isomers) [MMZ-Gly-Arg-pNA.HCl] | t
* Cl.N=C(N)NCCC[C@H](NC(=O)CNS(=O)(=O)c1ccc2ccccc2c1)C(=O)Nc1ccc([N+](=O)[O-])cc1 [βNS-Gly-Arg-pNA.HCl] | f
* CC(C)[C@H](NC(=O)CNC(=O)OC(C)(C)C)C(=O)N[C@@H](CCCNC(=N)N)C(=O)Nc1ccc([N+](=O)[O-])cc1.Cl [Boc-Gly-Val-Arg-pNA.HCl] (Boc-Gly-Val-Arg-pNA) | f
* COC(=O)C(C)C(=O)NC(C)C(=O)NC(CCCNC(=N)N)C(=O)Nc1ccc([N+](=O)[O-])cc1.Cl (mixture of isomers) [MMZ-Ala-Arg-pNA.HCl] | t
